The entries below come with measured DC50 values attached.
Experimental target: UniProtKB P49137
Sequence (P49137 whole entry): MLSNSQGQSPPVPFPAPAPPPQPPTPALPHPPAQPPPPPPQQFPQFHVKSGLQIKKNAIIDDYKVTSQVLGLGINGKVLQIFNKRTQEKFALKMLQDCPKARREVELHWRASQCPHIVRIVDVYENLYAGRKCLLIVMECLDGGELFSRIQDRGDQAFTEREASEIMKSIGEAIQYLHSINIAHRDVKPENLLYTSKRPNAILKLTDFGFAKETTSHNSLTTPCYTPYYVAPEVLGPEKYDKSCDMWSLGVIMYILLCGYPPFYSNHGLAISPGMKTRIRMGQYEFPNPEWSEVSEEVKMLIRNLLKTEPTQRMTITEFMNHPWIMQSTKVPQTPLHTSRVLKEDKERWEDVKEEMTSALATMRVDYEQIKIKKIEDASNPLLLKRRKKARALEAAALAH
Method notes: MK2 degradation in human SW1353 cells (MSD, 24 h)
Format: cell-based
Set-up: endogenous in cells; host or cells: SW-1353 (ATCC HTB-94)
Details: read-out: MK2 MSD SW1353 degradation 24 h GMean External Abs DC50

- Compound: "Cn1c(=O)n(C2CCC(=O)NC2=O)c2ccc(N3CC(CN4CCN(c5ccc(-c6nccc(-c7cc8c([nH]7)C7(CC7)CNC8=O)n6)cc5)CC4)C3)cc21 (stereo not drawn)"
  DC50: "> 100 nM"
- Compound: "Cn1c(=O)n(C2CCC(=O)NC2=O)c2ccc(C#CCN3CCN(c4ccc(-c5nccc(-c6cc7c([nH]6)C6(CC6)CNC7=O)n5)cc4)CC3)cc21 (stereo not drawn)"
  DC50: "< 1 nM"
- Compound: "Cn1c(=O)n(C2CCC(=O)NC2=O)c2ccc(N3CC(CN4CCN(c5ccc(-c6cc(-c7cc8c([nH]7)C7(CC7)CNC8=O)ncn6)cc5)CC4)C3)cc21 (stereo not drawn)"
  DC50: "< 1 nM"
- Compound: "Cn1c(=O)n(C2CCC(=O)NC2=O)c2cccc(OCCN3CCN(c4ccc(-c5nccc(-c6cc7c([nH]6)C6(CC6)CNC7=O)n5)c(F)c4)CC3)c21 (stereo not drawn)"
  DC50: "1 to 10 nM"
- Compound: "C[C@@H]1CNc2c(sc3ccc4nc(N5CC[C@H](N(C)C6CC7(CCN(c8ccc9c(c8)n(C)c(=O)n9C8CCC(=O)NC8=O)CC7)C6)C(F)(F)C5)ccc4c23)C(=O)N1 (stereo partly drawn)"
  DC50: "< 1 nM"
- Compound: "Cn1c(=O)n(C2CCC(=O)NC2=O)c2ccc(N3CC(CN4CCN(c5ccc(-c6nccc(-c7cc8c([nH]7)C7(CC7)CNC8=O)n6)cc5C(F)(F)F)CC4)C3)cc21 (stereo not drawn)"
  DC50: "< 1 nM"
- Compound: "C[C@@H]1CNc2c(sc3ccc4nc(N5CCC(CN6CCC7(CC6)CN(c6ccc8c(c6)n(C)c(=O)n8C6CCC(=O)N(C)C6=O)C7)CC5)ccc4c23)C(=O)N1 (stereo partly drawn)"
  DC50: "1 to 10 nM"
- Compound: "Cn1c(=O)n(C2CCC(=O)NC2=O)c2ccc(N3CC(CN4CCN(c5ccc(-c6nccc(-c7cc8c([nH]7)C7(CC7)CNC8=O)n6)cc5OC5CC5)CC4)C3)cc21 (stereo not drawn)"
  DC50: "> 100 nM"
- Compound: "C[C@@H]1CNc2c(sc3ccc4nc(N5CCC(CN6CCC(N7CC(c8ccc9c(c8)n(C)c(=O)n9C8CCC(=O)NC8=O)C7)CC6)CC5)ccc4c23)C(=O)N1 (stereo partly drawn)"
  DC50: "< 1 nM"
- Compound: "COc1ccc2c(c1CCN1CCN(c3ccc(-c4nccc(-c5cc6c([nH]5)C5(CC5)CNC6=O)n4)cc3)CC1)n(C)c(=O)n2C1CCC(=O)NC1=O (stereo not drawn)"
  DC50: "< 1 nM"

Query string: Would you kindly share the measured DC50 for C[C@@H]1CNc2c(sc3ccc4nc(N5CCN(C6CC7(CCN(c8ccc(NC9CCC(=O)NC9=O)cc8F)CC7)C6)CC5)ccc4c23)C(=O)N1 (stereo partly drawn) ?
Result string: 1 to 10 nM

Query string: # lookup: DC50 of `O=C1CCN(c2cncc3c(CCN4CCN(c5ccc(-c6nccc(-c7cc8c([nH]7)C7(CCC7)CNC8=O)n6)c(F)c5)CC4)cccc23)C(=O)N1`
Result string: 1 to 10 nM
